Test system: Huntingtin protein (HTT)
Assay: Endogenous Huntingtin Protein Assay (MSD electrochemiluminescence ELISA; MW1 or MAB2166 capture, #5656S detection)
Type: cell-based, human
pIC50: −log10 of the molar value.
measured-endpoint: pIC50

COc1cc(-n2cc([N+](=O)[O-])cn2)ccc1-c1ccc(OC2CC(C)(C)NC(C)(C)C2)nn1
5.05 to 5.52
CN(c1ccc(-c2cc(F)c(-c3cn[nH]c3)cc2F)nn1)C1CC(C)(C)NC(C)(C)C1
6.30 to 7.00
Cn1cc(-c2csc(-c3ccc(OC4CC(C)(C)NC(C)(C)C4)nn3)c2)cn1
5.52 to 6.00
CN(c1nnc(-c2cc(F)c(-c3cn[nH]c3)cc2F)s1)C1CC(C)(C)NC(C)(C)C1
≥ 7.00
Cc1[nH]ncc1-c1ccc(-c2ccc(N(C)C3CC(C)(C)NC(C)(C)C3)nn2)c(O)c1
≥ 7.00
CN(c1ccc(-c2ccc(-c3cn[nH]c3)cc2O)nn1)C1CCNCC1
6.30 to 7.00
CC1(C)CC(Nc2ccc(-c3ccc(-c4cn[nH]c4)cc3O)nn2)CC(C)(C)N1
≥ 7.00
CN(c1nnc(-c2c(F)cc(-c3cn[nH]c3)cc2F)s1)C1CC(C)(C)NC(C)(C)C1
6.30 to 7.00
Oc1cc(-c2cn[nH]c2)ccc1-c1ccc(C2=CC3CCC(C2)N3)nn1 (stereo not shown)
6.30 to 7.00
CC1(C)CC(Oc2ccc(-c3ccc(-n4cccn4)cc3O)nn2)CC(C)(C)N1
≥ 7.00
Cc1nn2ccccc2c1-c1ccc(N(C)C2CC(C)(C)NC(C)(C)C2)nn1
5.05 to 5.52
Oc1cc(-c2cn[nH]c2)ccc1-c1ccc(NC2C[C@H]3CC[C@@H](C2)N3)nn1 (stereo partly shown) [Cpd 433]
6.30 to 7.00
CC1(C)CC(Oc2ccc(-c3ccc(-c4ccnc(O)c4)cc3O)nn2)CC(C)(C)N1
≥ 7.00
CC1(C)CC(Oc2ccc(-c3ccc(-c4cn[nH]c4)nc3O)nn2)CC(C)(C)N1
5.05 to 5.52
CN(c1ccc(-c2ccc(C#N)cc2O)nn1)C1CC(C)(C)NC(C)(C)C1
5.05 to 5.52
CN1CC=C(c2ccc(-c3ccc(-c4cn[nH]c4)cc3O)nn2)CC1
≥ 7.00
